Would you kindly list pIC50 for each of these compounds?
- study.target: p300 HAT domain (residues 1287-1666) (Homo sapiens (Human))
- test.summary: p300 HAT SPA assay (scintillation proximity assay, acetylation of biotinylated H3(1-21) peptide)
- Assay type: biochemical
- experimental.parameters: p300 HAT domain; average of at least 2 replicate titrations; read-out: P300 HAT SPA IC50
Scale: negative log10 of molar concentration, which is what pIC50 denotes.

Input line: pIC50 lookup needed for CC(CNC(C(=O)c1cnn2cc(-c3cnn(C)c3)ccc12)c1ccccc1)c1ccc(C#N)cc1 (single isomer, unassigned) [102 Isomer 2] , thanks.
Output line: 6.62

Input line: pIC50 lookup needed for Cn1cnc(-c2ccc3c(C(=O)C(NCCc4ccc(Cl)cc4)c4ccccc4)c[nH]c3c2)c1 (single isomer, unassigned) [106 Isomer 2] , thanks.
Output line: 6.55

---

- study.target: p300 HAT domain (residues 1287-1666) (Homo sapiens (Human), UniProt Q09472)
- Sequence (Q09472 1287-1666): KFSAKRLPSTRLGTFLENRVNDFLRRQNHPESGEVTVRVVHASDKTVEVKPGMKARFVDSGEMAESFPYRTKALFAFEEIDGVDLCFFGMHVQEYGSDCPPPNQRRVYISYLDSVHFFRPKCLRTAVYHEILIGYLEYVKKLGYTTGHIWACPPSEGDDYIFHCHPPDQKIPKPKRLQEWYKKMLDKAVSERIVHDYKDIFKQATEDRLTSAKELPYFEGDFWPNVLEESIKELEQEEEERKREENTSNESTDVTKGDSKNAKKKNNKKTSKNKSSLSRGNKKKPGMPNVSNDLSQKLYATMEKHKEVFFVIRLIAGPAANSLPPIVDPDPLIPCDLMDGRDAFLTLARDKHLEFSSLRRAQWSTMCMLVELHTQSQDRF
- test.summary: p300 HAT SPA assay (scintillation proximity assay, acetylation of biotinylated H3(1-21) peptide)
- Assay type: biochemical
- experimental.parameters: p300 HAT domain; average of at least 2 replicate titrations; read-out: P300 HAT SPA IC50
reported.metric: IC50

Input line: IC50 lookup needed for CC(CNC(C(=O)c1cnn2cc(C(=O)NC[C@@H](C)O)ccc12)c1ccccc1)c1ccc(C#N)cc1 (single isomer, unassigned) [70 Isomer 3] , thanks.
Output line: 0.747 µM

Input line: IC50 lookup needed for CNC(=O)Cc1ccc(CCNC(C(=O)c2c[nH]c3ccccc23)c2ccccc2)cc1 (single isomer, unassigned) [136 Isomer 2] , thanks.
Output line: > 60 µM

Input line: IC50 lookup needed for O=C(c1c[nH]c2ccccc12)C(NCCN1CCOCC1)c1ccccc1 (single isomer, unassigned) [18 Isomer 1] , thanks.
Output line: > 60 µM

---

Entries with their measured IC50, system UniProt Q09472:
// units = nM; emit number, no label

Input line: IC50 lookup needed for O=C(c1c[nH]c2ccccc12)C(NCCc1ccc(C(F)(F)F)cc1)c1ccccc1 (single isomer, unassigned) [21 Isomer 1] , thanks.
Output line: 100

Input line: IC50 lookup needed for CNC(=O)Cn1cc(-c2ccc3c(C(=O)C(NCCc4ccc(Cl)cc4)c4ccccc4)c[nH]c3c2)cn1 (single isomer, unassigned) [87 Isomer 2] , thanks.
Output line: 11.6

Input line: IC50 lookup needed for COc1ccccc1CCNC(C(=O)c1c[nH]c2ccccc12)c1ccccc1 (single isomer, unassigned) [6 Isomer 2] , thanks.
Output line: 82

---

- study.target: p300 HAT domain (residues 1287-1666) (Homo sapiens (Human))
- test.summary: p300 HAT SPA assay (scintillation proximity assay, acetylation of biotinylated H3(1-21) peptide)
- Assay type: biochemical
- experimental.parameters: p300 HAT domain; average of at least 2 replicate titrations; read-out: P300 HAT SPA IC50
reported.metric: pIC50
Scale: negative log10 of molar concentration, which is what pIC50 denotes.

Input line: pIC50 lookup needed for COCCn1cc(-c2ccc3c(C(=O)C(NCCc4ccc(C#N)cc4)c4ccccc4)c[nH]c3c2)cn1 (single isomer, unassigned) [96 Isomer 2] , thanks.
Output line: 7.21

Input line: pIC50 lookup needed for O=C(c1c[nH]c2ccccc12)C(NCCc1ccccn1)c1ccccc1 (single isomer, unassigned) [9 Isomer 2] , thanks.
Output line: 4.48

Input line: pIC50 lookup needed for O=C(c1c[nH]c2cc(-c3ccncn3)ccc12)C(NCCc1ccc(Cl)cc1)c1ccccc1 (single isomer, unassigned) [111 Isomer 1] , thanks.
Output line: 5.94

Input line: pIC50 lookup needed for Cn1cnc(-c2ccc3c(C(=O)C(NCCc4ccc(Cl)cc4)c4ccccc4)c[nH]c3c2)c1 (single isomer, unassigned) [106 Isomer 1] , thanks.
Output line: 6.12

Input line: pIC50 lookup needed for O=C(c1c[nH]c2cc(-c3ccccn3)ccc12)C(NCCc1ccc(F)cc1)c1ccccc1 (single isomer, unassigned) [105 Isomer 2] , thanks.
Output line: 5.86
